Data provenance is PubChem BioAssay AID1963825.

- Experimental Protocol: Anticancer human tumor 997537-175-T-J1-PDC patient-derived colon adenocarcinoma cell line growth inhibition [POLQ]
- Experimental Setup: 997537-175-T-J1-PDC complex spheroid viability, combination with POLQ inhibitors; second compound 3.16 µM; first compound 10 µM; hits give low values
Each record is given y if its reported viability, T/C is strictly below 70%. Records at or above 70% are given n.

Query :: Find out if reported viability, T/C for COc1cc(C2c3cc4c(cc3C(OC3OC5COC(C)OC5C(O)C3O)C3COC(=O)C23)OCO4)cc(OC)c1O (stereo not given) + COC1C(OC(N)=O)C(O)C(Oc2ccc3c(O)c(NC(=O)c4ccc(O)c(CC=C(C)C)c4)c(=O)oc3c2C)OC1(C)C is less than 70%
Result :: y

Query :: Find out if reported viability, T/C for CCCS(=O)(=O)Nc1ccc(F)c(C(=O)c2c[nH]c3ncc(-c4ccc(Cl)cc4)cc23)c1F + Nc1ccc(C#CCN(C(=O)Cc2ncc(C(F)(F)F)cc2C(F)(F)F)c2ccc(F)cc2)nn1 is less than 70%
Result :: y

Query :: Find out if reported viability, T/C for CCc1cc2c(N3CCc4c(cc(Cn5ccnc5)cc4-c4cn(C)nc4C(F)(F)F)C3=O)ccnc2c(OC)n1 + COC1C(OC(N)=O)C(O)C(Oc2ccc3c(O)c(NC(=O)c4ccc(O)c(CC=C(C)C)c4)c(=O)oc3c2C)OC1(C)C is less than 70%
Result :: y

Query :: Find out if reported viability, T/C for CNCc1ccc(-c2[nH]c3cc(F)cc4c3c2CCNC4=O)cc1 + Cc1cccc(N(C)C(=O)C2C(O)CCN2c2nc(C)cc(C(F)(F)F)c2C#N)c1 is less than 70%
Result :: n

Query :: Find out if reported viability, T/C for COc1cc2cc(C(=O)CCC(=O)O)sc2cc1OC + COC1C(OC(N)=O)C(O)C(Oc2ccc3c(O)c(NC(=O)c4ccc(O)c(CC=C(C)C)c4)c(=O)oc3c2C)OC1(C)C is less than 70%
Result :: n

* * *

- Experimental Protocol: Anticancer human tumor 997537-175-T-J1-PDC cell line growth inhibition [POLQ];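 note: luminescence signal used as a surrogate for viable cells; spheroids exposed to drugs for seven days before readout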
- Experimental Setup: 997537-175-T-J1-PDC complex spheroid viability, combination with POLQ inhibitors; second compound 0.1 µM; first compound 10 µM; hits give low values
Quantity: viability, T/C

Query :: Suppose we examine the molecule C#Cc1c(F)ccc2cc(O)cc(-c3ncc4c(N5CC6CCC(C5)N6)nc(OCC56CCCN5CC(F)C6)nc4c3F)c12 (configuration not stated) + Cc1cccc(N(C)C(=O)C2C(O)CCN2c2nc(C)cc(C(F)(F)F)c2C#N)c1 ; what viability, T/C value has been reported?
Result :: 108%

Query :: Suppose we examine the molecule CC(C)n1c(=O)n(C)c2cnc3cc(F)c(-c4ccc(OCCCN5CCCCC5)nc4)cc3c21 + Cc1cccc(N(C)C(=O)C2C(O)CCN2c2nc(C)cc(C(F)(F)F)c2C#N)c1 ; what viability, T/C value has been reported?
Result :: 81.3%

Query :: Suppose we examine the molecule CC1COCCN1c1cc(C2(S(C)(=N)=O)CC2)nc(-c2ccnc3[nH]ccc23)n1 (configuration not stated) + COC1C(OC(N)=O)C(O)C(Oc2ccc3c(O)c(NC(=O)c4ccc(O)c(CC=C(C)C)c4)c(=O)oc3c2C)OC1(C)C ; what viability, T/C value has been reported?
Result :: 60.5%

Query :: Suppose we examine the molecule C=CC(=O)N1CCN(c2nc(=O)n(-c3c(C)ccnc3C(C)C)c3nc(-c4c(O)cccc4F)c(F)cc23)C(C)C1 (configuration not stated) + Nc1ccc(C#CCN(C(=O)Cc2ncc(C(F)(F)F)cc2C(F)(F)F)c2ccc(F)cc2)nn1 ; what viability, T/C value has been reported?
Result :: 107%

Query :: Suppose we examine the molecule O=c1[nH]cc(F)c(=O)[nH]1 + Cc1cccc(N(C)C(=O)C2C(O)CCN2c2nc(C)cc(C(F)(F)F)c2C#N)c1 ; what viability, T/C value has been reported?
Result :: 98.4%

Query :: Suppose we examine the molecule CCCS(=O)(=O)Nc1ccc(F)c(C(=O)c2c[nH]c3ncc(-c4ccc(Cl)cc4)cc23)c1F + Nc1ccc(C#CCN(C(=O)Cc2ncc(C(F)(F)F)cc2C(F)(F)F)c2ccc(F)cc2)nn1 ; what viability, T/C value has been reported?
Result :: 37.9%

Query :: Suppose we examine the molecule CC1COCCN1c1cc(C2(S(C)(=N)=O)CC2)nc(-c2ccnc3[nH]ccc23)n1 (configuration not stated) + Nc1ccc(C#CCN(C(=O)Cc2ncc(C(F)(F)F)cc2C(F)(F)F)c2ccc(F)cc2)nn1 ; what viability, T/C value has been reported?
Result :: 43.9%

Query :: Suppose we examine the molecule CC1COCCN1c1cc(C2(O)CC3CCC(C2)O3)c2cnn(-c3ccn[nH]3)c2n1 (configuration not stated) + Cc1cccc(N(C)C(=O)C2C(O)CCN2c2nc(C)cc(C(F)(F)F)c2C#N)c1 ; what viability, T/C value has been reported?
Result :: 53.9%

Query :: Suppose we examine the molecule CCCS(=O)(=O)Nc1ccc(F)c(C(=O)c2c[nH]c3ncc(-c4ccc(Cl)cc4)cc23)c1F + COC1C(OC(N)=O)C(O)C(Oc2ccc3c(O)c(NC(=O)c4ccc(O)c(CC=C(C)C)c4)c(=O)oc3c2C)OC1(C)C ; what viability, T/C value has been reported?
Result :: 41.2%

Query :: Suppose we examine the molecule CCc1cc2c(N3CCc4c(cc(Cn5ccnc5)cc4-c4cn(C)nc4C(F)(F)F)C3=O)ccnc2c(OC)n1 + Nc1ccc(C#CCN(C(=O)Cc2ncc(C(F)(F)F)cc2C(F)(F)F)c2ccc(F)cc2)nn1 ; what viability, T/C value has been reported?
Result :: 63.2%

Query :: Suppose we examine the molecule COc1cc(C2c3cc4c(cc3C(OC3OC5COC(C)OC5C(O)C3O)C3COC(=O)C23)OCO4)cc(OC)c1O (configuration not stated) + Cc1cccc(N(C)C(=O)C2C(O)CCN2c2nc(C)cc(C(F)(F)F)c2C#N)c1 ; what viability, T/C value has been reported?
Result :: 61.9%

Query :: Suppose we examine the molecule O=C(c1cc(Cc2n[nH]c(=O)c3ccccc23)ccc1F)N1CCN(C(=O)C2CC2)CC1 + Cc1cccc(N(C)C(=O)C2C(O)CCN2c2nc(C)cc(C(F)(F)F)c2C#N)c1 ; what viability, T/C value has been reported?
Result :: 86.2%

Query :: Suppose we examine the molecule O=C(c1cc(Cc2n[nH]c(=O)c3ccccc23)ccc1F)N1CCN(C(=O)C2CC2)CC1 + Nc1ccc(C#CCN(C(=O)Cc2ncc(C(F)(F)F)cc2C(F)(F)F)c2ccc(F)cc2)nn1 ; what viability, T/C value has been reported?
Result :: 94.8%

Query :: Suppose we examine the molecule Nc1ccn(C2OC(CO)C(O)C2(F)F)c(=O)n1 (configuration not stated) + Nc1ccc(C#CCN(C(=O)Cc2ncc(C(F)(F)F)cc2C(F)(F)F)c2ccc(F)cc2)nn1 ; what viability, T/C value has been reported?
Result :: 47.3%

Query :: Suppose we examine the molecule CC(C)n1c(=O)n(C)c2cnc3cc(F)c(-c4ccc(OCCCN5CCCCC5)nc4)cc3c21 + Nc1ccc(C#CCN(C(=O)Cc2ncc(C(F)(F)F)cc2C(F)(F)F)c2ccc(F)cc2)nn1 ; what viability, T/C value has been reported?
Result :: 77.4%

Query :: Suppose we examine the molecule Nc1ccn(C2OC(CO)C(O)C2(F)F)c(=O)n1 (configuration not stated) + Cc1cccc(N(C)C(=O)C2C(O)CCN2c2nc(C)cc(C(F)(F)F)c2C#N)c1 ; what viability, T/C value has been reported?
Result :: 52.8%

Query :: Suppose we examine the molecule O=c1[nH]cc(F)c(=O)[nH]1 + Nc1ccc(C#CCN(C(=O)Cc2ncc(C(F)(F)F)cc2C(F)(F)F)c2ccc(F)cc2)nn1 ; what viability, T/C value has been reported?
Result :: 88.1%

Query :: Suppose we examine the molecule CNCc1ccc(-c2[nH]c3cc(F)cc4c3c2CCNC4=O)cc1 + COC1C(OC(N)=O)C(O)C(Oc2ccc3c(O)c(NC(=O)c4ccc(O)c(CC=C(C)C)c4)c(=O)oc3c2C)OC1(C)C ; what viability, T/C value has been reported?
Result :: 106%

Query :: Suppose we examine the molecule CC1COCCN1c1cc(-c2ccnn2C)c2ccnc(-c3ccn[nH]3)c2n1 (configuration not stated) + COC1C(OC(N)=O)C(O)C(Oc2ccc3c(O)c(NC(=O)c4ccc(O)c(CC=C(C)C)c4)c(=O)oc3c2C)OC1(C)C ; what viability, T/C value has been reported?
Result :: 52.9%

Query :: Suppose we examine the molecule CC1COCCN1c1cc(C2(S(C)(=N)=O)CC2)nc(-c2ccnc3[nH]ccc23)n1 (configuration not stated) + Cc1cccc(N(C)C(=O)C2C(O)CCN2c2nc(C)cc(C(F)(F)F)c2C#N)c1 ; what viability, T/C value has been reported?
Result :: 64.7%

Query :: Suppose we examine the molecule COc1cc2cc(C(=O)CCC(=O)O)sc2cc1OC + COC1C(OC(N)=O)C(O)C(Oc2ccc3c(O)c(NC(=O)c4ccc(O)c(CC=C(C)C)c4)c(=O)oc3c2C)OC1(C)C ; what viability, T/C value has been reported?
Result :: 92.2%

Query :: Suppose we examine the molecule CCCS(=O)(=O)Nc1ccc(F)c(C(=O)c2c[nH]c3ncc(-c4ccc(Cl)cc4)cc23)c1F + Cc1cccc(N(C)C(=O)C2C(O)CCN2c2nc(C)cc(C(F)(F)F)c2C#N)c1 ; what viability, T/C value has been reported?
Result :: 25.9%
